Tested on: HCV replicon containing NS5B from Clinical Isolate Pt 7 in Huh7 cells
assay.notes: Transient replicon phenotypic assay (firefly luciferase), patient-derived NS5B Pt 7
Type: cell-based, HCV genotype 1a
protocol.conditions: Hepatitis C virus, genotype 1a, Huh-7, 72 h, read-out: 2′-C-Me-C IC50
assay.readout: pIC50
Answer as the number alone; pIC50 is minus log10 of concentration in mol/L.

IN: Record lookup: for HCV replicon containing NS5B from Clinical Isolate Pt 7 in Huh7 cells, what pIC50 belongs to `C[C@@]1(O)[C@H](O)[C@@H](CO)O[C@H]1n1ccc(N)nc1=O` ?
OUT: 6.52

---

Test system: HCV replicon pSS-1_1a_NS5B_5′AsiSI_3′RsrII in Huh7 cells
assay.notes: Transient replicon phenotypic assay (firefly luciferase), reference shuttle vector
Assay type: cell-based, HCV genotype 1a (H77)
protocol.conditions: Hepatitis C virus, Huh-7, 72 h, read-out: 2′-C-Me-C IC50
assay.readout: IC50 (nM)
Express it in nM; write the number only.

IN: Quick one: IC50 of `C[C@@]1(O)[C@H](O)[C@@H](CO)O[C@H]1n1ccc(N)nc1=O` ?
OUT: 400
